System: U2OS
METHOD SUMMARY: Multiplex assay against U2OS
Format: toxicity, cell-based
APPLIED CONDITIONS: human, 48 h, 1 µM, compound concentration 1 uM, replicate 2
RECORDED METRIC: Population Healthy Nuclei (%)

Tell me measured Population Healthy Nuclei (%) for COc1cc2nc(N3CCN(C(=O)c4ccco4)CC3)nc(N)c2cc1OC.Cl [PRAZOSIN HYDROCHLORIDE] please. 77%

For the molecule C=CCN1C[C@H](C(=O)N(CCCN(C)C)C(=O)NCC)C[C@@H]2c3cccc4[nH]cc(c34)C[C@H]21 , report Population Healthy Nuclei (%). 73%

Return the recorded Population Healthy Nuclei (%) value; entry: COc1ccc2c(c1OCc1ccccc1)C[C@@H](C(=O)O)N(C(=O)C(c1ccccc1)c1ccccc1)C2 77%

Consider the molecule Nc1nc(-c2ccco2)c2cnn(Cc3ccccc3F)c2n1 . State its measured Population Healthy Nuclei (%). 67%

Give recorded Population Healthy Nuclei (%). Nc1nc(CC(=O)Nc2ccc(CCNC[C@H](O)c3ccccc3)cc2)cs1 74%

---

Test system: Fibroblast
METHOD SUMMARY: Multiplex assay against human fibroblast
Type: toxicity, cell-based
APPLIED CONDITIONS: 24 h, 1 µM, compound concentration 1 uM, replicate 1
RECORDED METRIC: Population Normal (%)
Return type: number; implicit unit %.

Provide one value: measured Population Normal (%) of C[C@@H]1CC(=O)Nc2cccc(-c3ccc4c(c3)c(-c3cnn(C)c3)nn4C)c2N1 97

Please give measured Population Normal (%) of the following entry: O=C(Nc1cc(-c2ccccc2)nn1-c1ccccc1F)c1ccc([N+](=O)[O-])cc1 97

Look up and state reported Population Normal (%) for COC(c1ccccc1)(c1ccccc1)[C@H](Oc1nc(C)cc(C)n1)C(=O)O 97

Using known records, supply Population Normal (%) for Cl.Cl.OCCOCCN1CCN(C(c2ccccc2)c2ccc(Cl)cc2)CC1 (configuration not stated) [HYDROXYZINE HYDROCHLORIDE] 98

Consider the compound COCCn1c(C)c(C)s/c1=N\C(=O)C1C(C)(C)C1(C)C and give its recorded Population Normal (%). 97

Identify the reported Population Normal (%) for the following entry. C[C@H](NC(=O)CNC(=O)c1cccc(Cl)c1)c1ccccc1 98

Give the reported value of Population Normal (%) for this record: COc1cc2nc(N3CCN(C(=O)c4ccco4)CC3)nc(N)c2cc1OC.Cl [PRAZOSIN HYDROCHLORIDE] 97

# return recorded Population Normal (%) for input Cc1cc(=O)n(C)c2cc(N3C(=O)CC[C@H](NS(=O)(=O)CC(C)C)[C@H]3c3ccc(Cl)cc3)ccc12 97

Write down Population Normal (%) measured for item CN(C)C/C=C/C(=O)Nc1ccc(C(=O)N2CCCC(Nc3ncc(Cl)c(-c4c[nH]c5ccccc45)n3)C2)cc1 (configuration not stated) 92

Please look at this compound and report its Population Normal (%): Cc1ccc(OCC(O)C(C)NC(C)C)c2c1CCC2.Cl (configuration not stated) 100

Retrieve Population Normal (%) measured for Cc1sc2c(c1C)C(c1ccc(Cl)cc1)=N[C@H](CC(=O)OC(C)(C)C)c1nnc(C)n1-2 and print it. 97

Output Population Normal (%) of COc1cc2nc(N3CCN(C(=O)COc4c(OC)cccc4C(C)C)CC3)nc(N)c2cc1OC.Cl.Cl 96
